# procedure summary: Toxicity liver stage against HepG2, at 10uM
# Format: cell-based
# Parameters: test concentration 10 uM, cell line HepG2-A16-CD81EGFP
# stated conditions: human, HepG2-A16-CD81EGFP cells; read-out: INHIBITION
cytotoxicity at 10 µM values by entry
assay endpoint: cytotoxicity at 10 µM (%)

1. CC(Cn1cccn1)NCc1nc(-c2cccc(Cl)c2)no1 (stereo not drawn)    -9.21
2. CN1CCC/C1=N\S(=O)(=O)c1ccc(NC(=O)c2ccco2)cc1    4.56
3. Cn1cccc1C(CNC(=O)c1ccc(F)cc1F)N1CCCCCC1 (stereo not drawn)    2.19
4. O=c1[nH]nc(CNc2ncc(Cl)cn2)[nH]1    -5.98
5. CC1(C)CC(=O)c2cnc3nc(N4CCCCC4)nc(O)c3c2C1    -0.0124
6. CC(C)c1cc(N[C@H](C(N)=O)C(C)C)n2nccc2n1    -1.56
7. O=C1COc2ccc(S(=O)(=O)NCC3CCCO3)c3c2N1CCC3 (stereo not drawn)    -4.2
8. CC(C)(C)C(O)CN1CCN(CC(=O)NC2CCOCC2)CC1 (stereo not drawn)    -8.06
9. CCC(O)CN1CCN(C(=O)c2cc3ccccc3n2CC)CC1 (stereo not drawn)    -0.579
10. Cc1ccc2c(n1)N(CC1CC1)CCN(C(=O)NC1CC1)C2    -3.09
11. Cc1n[nH]c(C)c1CN(C)C(C(=O)O)c1ccc2c(c1)OCO2 (stereo not drawn)    6.86
12. CCN1CCC2(CC1)CC(NCc1cccs1)c1ccccc1O2 (stereo not drawn)    -11.6
13. COCC(O)CN(C)C(=O)NCc1ccc(-c2ccn[nH]2)cc1 (stereo not drawn)    1.81
14. c1ccc(C2CCCCN2Cc2nc(-c3cnccn3)no2)nc1 (stereo not drawn)    -8.04
15. O=c1cc(-c2ccccc2)nc2n1CCCCC2    1.36
16. COc1ccc(CN2Cc3cn(C)nc3C(COCC3CC3)C2)cc1 (stereo not drawn)    -78.5
17. COc1ccc2oc(-c3cn(C)nc3C)c(O)c(=O)c2c1    9.96
18. Cc1cc(CNC(=O)C2CCC(=O)N(Cc3ccccc3F)C2)on1 (stereo not drawn)    -5.26
19. NC(=O)C(NCc1nn(-c2ccccc2)c2c1CCC2)c1ccccc1 (stereo not drawn)    -5.86
20. CN(Cc1cccnc1)Cc1cncc2c1CCN(c1ccccn1)C2    -108
21. c1cnc(CC2CCN(c3cnccn3)CC2)cn1    4.44
22. c1ccc(-c2cnn3cc(CN4CCC5(CCO5)CC4)cnc23)cc1    1.64
23. CSc1ncc(C(=O)N2CCC(O)(CN3CCOCC3)C(C)(C)C2)cn1 (stereo not drawn)    -2.16
24. O=C(CCNC(=O)c1ccoc1)Nc1ccc(F)cc1F    -6.44
25. COc1nn(C)cc1C(=O)N1CCC(c2nnc(C3CC3)o2)CC1    5.14
26. c1coc(-c2[nH]c3ncccc3c2CN2CCCOCC2)c1    -5.44
27. Cc1noc(-c2cccnc2N2CCN(c3cnn(C)c3)CC2)n1    1.12
28. Cc1ccc2oc(C(=O)N3CCc4nnc(N(C)C)cc4C3)cc2n1    -3.25
29. Cc1nc2c(c(=O)[nH]1)CN(C(=O)CCC1CCCN(C)C1)C2 (stereo not drawn)    -7.76
30. CN1CCOC(CNCc2nc(-c3cccnc3)no2)C1 (stereo not drawn)    -5.3
31. CC(=O)N1CCCC1c1nccnc1NCc1cccnc1 (stereo not drawn)    -6.72
32. O=C(CCNS(=O)(=O)c1ccccc1)NCc1ccoc1    -0.886
33. O=C(C1CC1)N1CCC2(CC1)COCCN2Cc1ccc(F)cc1    -69.4
34. CCc1ccc(C(=O)N2CC[C@](C)(O)[C@H](C)C2)[nH]1    2.27
35. Cc1nc(CCNC(=O)C2CC(=O)N(C(C)(C)C)C2)sc1Cl (stereo not drawn)    16.8
36. Cn1cnc2c1C(COCC1CCOCC1)CN(C(=O)c1ccoc1)C2 (stereo not drawn)    -7.8
37. Cc1cc(C(F)(F)F)nn1C(C)C(=O)NN1CCN(C)CC1 (stereo not drawn)    20.4
38. CN(C)C(=O)N1CC[C@]2(O)CCN(C(=O)c3ccc(C#N)nc3)C[C@@H]2C1    -51
39. CO[C@H]1CO[C@@]2(CCCN(S(=O)(=O)c3ccccc3)C2)C1    -81.9
40. Cn1nc2c(cc1=O)CN(CCOc1ccccc1C#N)CC2    18
41. CN(C)c1ncc(-c2cc(C(=O)NCCO)n(CC3CC3)c2)cn1    -3.53
42. CC(=O)N1CCCC1c1ccc(C(=O)N2CCOCC2)s1 (stereo not drawn)    6.92
43. Cc1noc(C(C)C)c1C(=O)NCC(c1cccs1)N(C)C (stereo not drawn)    -14.5
44. O=C(c1cccc(-c2ncc[nH]2)c1)N1CC[C@H](CO)[C@@H](O)C1    -0.462
45. CCCc1noc(C(C)N2CCN(CCn3ccccc3=O)CC2)n1 (stereo not drawn)    5.6
46. O=c1cc(CNS(=O)(=O)C2CC2)nc2n1CCCNC2    7.83
47. CCN(CC)C(CNCc1ccc(C)o1)c1ccco1 (stereo not drawn)    3.23
48. CN1CCC2(CC1)CN(Cc1ccc(C3CCCCO3)o1)CCCN2C (stereo not drawn)    -5.35
